FYI, the data here is from PubChem BioAssay (NCI).

The entries below come with measured growth values attached.
Test system: OVCAR-8 ovarian
Test: NCI-60 one-dose screen, 48 h (100 = growth as untreated, 0 = no growth, -100 = all killed)
Conditions: 10 µM unless noted
The panel holds about 83,000 compounds, 20% with a hit somewhere; the sample as a whole holds those more often. Active and inactive are the calls of the source. Rule for the calls: active = growth percent below 10; inactive = the rest.

# count of solved cases: 4
- compound: "Cc1ccc2nc(/C(C#N)=C(/CCCO)NC(Cc3ccccc3)C(=O)OCc3ccccc3)[nH]c(=O)c2c1 (stereo not drawn)"
  target desc: "OVCAR-8 ovarian"
  growth: "120% (inactive)"
- compound: "CC1CCN(C(=S)SCC(=O)NC(=O)c2ccccc2)CC1"
  target desc: "OVCAR-8 ovarian"
  growth: "112% (inactive)"
- compound: "COc1ccccc1N(C(C)=O)C1=C(Cl)C(=O)c2ccccc2C1=O"
  target desc: "OVCAR-8 ovarian"
  growth: "19.1% (inactive)"
- compound: "Cc1nn(-c2ccccc2)c(N)c1N=C1NC(=O)/C(=C/c2ccc(Br)cc2)S1"
  target desc: "OVCAR-8 ovarian"
  growth: "98.8% (inactive)"

What does the record list as growth for COc1ccc(CCN2C(=O)/C(=C/c3ccc(C4Oc5ccccc5C5CC(c6ccccc6)=NN54)cc3)SC2=S)cc1 (stereo not drawn) ?
108% (inactive)

What does the record list as growth for Cc1nc2ccccc2c(/C=C/c2ccccc2)c1C(=O)/C=C/c1ccccc1 ?
10.4% (inactive)

What does the record list as growth for CCOC(=O)c1[nH]c2c(c1C)-c1[nH]c(=O)c(S(=O)(=O)c3ccccc3)cc1SC2 ?
25.3% [100 µM] (inactive)

What does the record list as growth for Cc1ccc(-c2csc(N(C(=O)N3CCN(c4cc5c(cc4F)c(=O)c(C(=O)O)cn5C4CC4)CC3)c3ccccc3)n2)cc1 ?
15.6% (inactive)

----------
Test system: SW-620 colon
Assay: NCI-60 one-dose screen, 48 h
Conditions: 10 µM unless noted
The panel holds about 83,000 compounds, 20% with a hit somewhere; the sample as a whole holds those more often. Activity calls are given as the source filed them. The calls were made as follows: active = growth percent below 10; inactive = the rest.
Respond with a class label; see TRUE (active), FALSE (inactive)

The following molecules have reported results that may help.
- molecule: "Cc1ccc(CNc2ccc3nc(CCC(C)C)[nH]c3c2)cc1"
  assigned class: "FALSE"
- molecule: "C=C(CNCCO)[C@@H]1CC[C@]2(CO)CC[C@]3(C)[C@H](CC[C@@H]4[C@@]5(C)CCC(N)C(C)(C)[C@@H]5CC[C@]43C)[C@@H]12 (some centres not stated)"
  assigned class: "TRUE"
- molecule: "N#Cc1c(Nc2ccc(N3CCOCC3)cc2)nc(SCC(=O)c2ccc(Br)cc2)nc1-c1ccccc1"
  assigned class: "FALSE"

Hello, I am checking results. What call was entered for CN1CCN(CCOc2ccc(-c3cnc4c(-c5cccc(F)c5F)cnn4c3)cc2)CC1 ?
TRUE

Hello, I am checking results. What call was entered for O=C1c2ccccc2C(=O)C1c1ccc(Br)cc1 ?
FALSE

Hello, I am checking results. What call was entered for O=C1c2ccccc2C(=O)c2c1cc1c(c2[N+](=O)[O-])OCO1 ?
TRUE

Hello, I am checking results. What call was entered for COc1ccc(Cn2cc(C(=O)N=Nc3c(O)[nH]c4c(C)cccc34)nn2)cc1 ?
FALSE

Hello, I am checking results. What call was entered for CC1=C(CCC(C)NCc2ccc(OCCCN3CCCCC3)cc2)C(C)(C)CCC1 (configuration not stated) ?
TRUE

Hello, I am checking results. What call was entered for Clc1c(Cl)[n+](Cc2ccc3ccccc3c2)cn1Cc1ccc2ccccc2c1 ?
FALSE

Hello, I am checking results. What call was entered for C=C(C)[C@@H]1CCC[C@]2(C(=O)O)CC[C@]3(C)[C@@H](CC[C@@H]4[C@@]5(C)C/C(=C/c6ccncc6)C(=O)C(C)(C)[C@@H]5CC[C@]43C)[C@@H]12 ?
FALSE

Hello, I am checking results. What call was entered for COc1cccc(/C=C/C(=O)c2cc3c(N)c(C(=O)Nc4cccc5ccccc45)sc3nc2C)c1 ?
TRUE

Hello, I am checking results. What call was entered for COc1cc2nc3sc(C(=O)Nc4ccc(C(=O)OC(C)C)cc4)c(C(=O)Nc4ccc(Cl)cc4C)n3c(=O)c2cc1OC ?
FALSE

Hello, I am checking results. What call was entered for COc1cc(-c2nc3sccn3c2-c2ccnc(NCCNS(=O)(=O)c3ccc(Cl)cc3)n2)ccc1F ?
FALSE

Hello, I am checking results. What call was entered for N#CC1=C(N)Oc2ccc3ccccc3c2C1c1ccc([N+](=O)[O-])cc1 (configuration not stated) ?
FALSE

Hello, I am checking results. What call was entered for COc1ccc(-c2n[nH]c(=O)c3nc(NC(=S)Nc4ccc(Oc5ccccc5)cc4)sc23)cc1 ?
FALSE

Hello, I am checking results. What call was entered for CC1(C)CC2=C3C=C[C@@H]4[C@@]5(C)CCC(=O)C(C)(C)[C@@H]5CC[C@@]4(C)[C@]3(C)CC[C@@]2(C(=O)O)C[C@H]1O ?
FALSE

Hello, I am checking results. What call was entered for Cc1ccc(-c2nc3nc(-c4ccccc4)nc(N4CCCN(S(C)(=O)=O)CC4)c3o2)cc1 ?
FALSE
